System: rodent lifetime carcinogenesis bioassay, tumor incidence TD50
Experiment: carcinogenic potency in animals, long-term in vivo studies, CPDB compilation (AID 1745844)
Conditions: mouse; strain Swiss albino; females; by gavage; site: liver; lesion: hepatoma, benign; dosed 52 weeks; study length 144 weeks
Endpoint: TD50

Entry `CCCC/C=N/N(C)C=O` ; assay system rodent lifetime carcinogenesis bioassay, tumor incidence TD50; TD50 recorded at 11.8 mg/kg/day

---

Test system: rodent lifetime carcinogenesis bioassay, tumor incidence TD50
Experiment: carcinogenic potency in animals, long-term in vivo studies, CPDB compilation (AID 1745844)
Settings: rat; strain Sprague-Dawley; females; by gavage; site: nasal cavity; lesion: esthesioneuroepithelioma; dosed 104 weeks; study length 123 weeks
Endpoint: TD50 (mg/kg/day)
// note: answer is a bare numeric in mg/kg/day

TD50 reading for `CCc1ccccc1` : 18300

---

System: rodent lifetime carcinogenesis bioassay, tumor incidence TD50
Experiment: carcinogenic potency in animals, long-term in vivo studies, CPDB compilation (AID 1745844)
Conditions: mouse; strain B6C3F1; females; in feed; site: all sites; lesion: leukemia + lymphoma; dosed 100 weeks; study length 100 weeks
Active and inactive are the calls of the source. How the calls were made is not given here.
Endpoint: TD50

Entry `N#CN` ; assay system rodent lifetime carcinogenesis bioassay, tumor incidence TD50; TD50 recorded at 478 mg/kg/day (inactive)

---

Tested on: rodent lifetime carcinogenesis bioassay, tumor incidence TD50
Experiment: carcinogenic potency in animals, long-term in vivo studies, CPDB compilation (AID 1745844)
Details: rat; strain Fischer 344; males; in feed; site: esophagus; lesion: squamous-cell papilloma; dosed 104 weeks; study length 105 weeks
Endpoint: TD50

Entry `OCC(CO)(CBr)CBr` ; assay system rodent lifetime carcinogenesis bioassay, tumor incidence TD50; TD50 recorded at 1390 mg/kg/day

---

Test system: rodent lifetime carcinogenesis bioassay, tumor incidence TD50
Assay: carcinogenic potency in animals, long-term in vivo studies, CPDB compilation (AID 1745844)
Settings: rat; strain Fischer 344; males; in feed; site: liver; lesion: hepatocellular adenoma + hepatocellular carcinoma + neoplastic nodule; dosed 110 weeks; study length 111 weeks
Endpoint: TD50
Units required after the number.

TD50 reading for `Nc1ncc([N+](=O)[O-])s1` : 318 mg/kg/day

---

System: rodent lifetime carcinogenesis bioassay, tumor incidence TD50
Assay: carcinogenic potency in animals, long-term in vivo studies, CPDB compilation (AID 1745844)
Conditions: mouse; strain B6C3F1; males; in feed; site: all sites; lesion: hemangioma + hemangiosarcoma; dosed 99 weeks; study length 99 weeks
Endpoint: TD50

TD50 reading for `Cc1cc(Cl)ccc1N` : 743 mg/kg/day

---

Tested on: rodent lifetime carcinogenesis bioassay, tumor incidence TD50
Assay: carcinogenic potency in animals, long-term in vivo studies, CPDB compilation (AID 1745844)
Details: mouse; strain B6C3F1; females; inhaled; site: mammary gland; lesion: adenocarcinoma + adenosquamous carcinoma; dosed 103 weeks; study length 104 weeks
Endpoint: TD50 (mg/kg/day)
// note: answer is a bare numeric in mg/kg/day

TD50 reading for CC1CO1 (stereo unspecified) : 1260

---

Test system: rodent lifetime carcinogenesis bioassay, tumor incidence TD50
Assay: carcinogenic potency in animals, long-term in vivo studies, CPDB compilation (AID 1745844)
Settings: mouse; strain B6C3F1; males; in feed; site: liver; lesion: hepatocellular adenoma; dosed 78 weeks; study length 83 weeks
The source made the active and inactive calls. The rule behind the calls is not given here.
Endpoint: TD50

TD50 reading for CC1CC(C)(C)CC(OOC(C)(C)C)(OOC(C)(C)C)C1 (stereo unspecified) : 1490 mg/kg/day (inactive)
